The measurements presented in this section are drawn from patent US20170121295A1.

Experiment Description: Pharmacokinetics in Sprague-Dawley Rats
Format: in vivo
Experimental Conditions: PO 1 mg/kg, fasted, males
Experimental Endpoint: mean dose adjusted exposure (AUC0-24/D) (µg·h/mL)

# Compound, Recorded Measurement
data = [
    ("Cc1noc(-c2ccc(-c3ccc(C4(C(=O)O)CC4)cc3)cc2)c1NC(=O)O[C@H](C)c1ccccc1 [Compound 1]", 2.1),
]

---

Experiment Description: Pharmacokinetics in Sprague-Dawley Rats
Type: in vivo
Experimental Conditions: Sprague-Dawley, rat, plasma; PO 1 mg/kg, fasted, female rats; read-out: maximal plasma concentration (Cmax)

# Given Smiles, Cmax
rows = [
    ("Cc1noc(-c2ccc(-c3ccc(C4(C(=O)O)CC4)cc3)cc2)c1NC(=O)O[C@H](C)c1ccccc1", "300 ng/mL"),
]

---

Experiment Description: Solubility assessment at various pH levels (solubility profile)
Format: physicochemical
Experimental Conditions: 0.15M NaCl solution, saline or isotonic, thermodynamic from solid, Target pH 3, pH adjusted with HCl or NaOH
Item-by-item account of solubility at 2 h

# Given Smiles, solubility at 2 h
records = [
    ("Cc1noc(-c2ccc(-c3ccc(C4(C(=O)[O-])CC4)cc3)cc2)c1NC(=O)O[C@H](C)c1ccccc1.[Na+]", "< 1 µg/mL"),
    ("Cc1noc(-c2ccc(-c3ccc(C4(C(=O)O)CC4)cc3)cc2)c1NC(=O)O[C@H](C)c1ccccc1", "< 1 µg/mL"),
]

---

Measured Target: Human LPA3 (Homo sapiens, UniProt Q9UBY5)
Construct: The full-length cDNA fragment for human LPA3 was obtained by PCR from the vector
Sequence (Q9UBY5 1-353): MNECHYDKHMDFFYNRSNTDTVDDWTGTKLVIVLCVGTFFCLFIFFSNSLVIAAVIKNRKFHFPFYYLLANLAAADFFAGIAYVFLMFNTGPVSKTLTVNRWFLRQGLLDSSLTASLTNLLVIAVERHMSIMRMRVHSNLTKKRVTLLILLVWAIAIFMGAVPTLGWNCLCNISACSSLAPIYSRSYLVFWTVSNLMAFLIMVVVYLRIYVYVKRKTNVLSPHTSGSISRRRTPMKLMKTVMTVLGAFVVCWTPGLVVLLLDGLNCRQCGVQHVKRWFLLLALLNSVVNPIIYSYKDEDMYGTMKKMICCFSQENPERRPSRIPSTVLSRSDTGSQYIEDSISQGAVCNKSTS
Experiment Description: LPA3 Calcium Flux Assay
Experimental Conditions: human LPA3 expressing CHO cells, 10 nM LPA; read-out: Ca Flux IC50 LPA3
Method: A vector containing the human LPA3 receptor cDNA was obtained from the Missouri S&T cDNA Resource Center (www.cdna.org). The full-length cDNA fragment for human LPA3 was obtained by PCR from the vector. The nucleotide sequence of the cloned human LPA3 was determined by sequencing and confirmed to be identical to the published human LPA3 sequence (NCBI accession number NM_012152). […]
pIC50: −log10 of the molar value.
Experimental Endpoint: pIC50

# Compound, Recorded Measurement
rows = [
    ("Cc1noc(-c2ccc(-c3ccc(C4(C(=O)O)CC4)cc3)cc2)c1NC(=O)O[C@@H](C)c1ccccc1 [S-enantiomer of Compound 1]", "< 6.00"),
    ("Cc1noc(-c2ccc(-c3ccc(C4(C(=O)O)CC4)cc3)cc2)c1NC(=O)O[C@H](C)c1ccccc1 [Compound 1]", "< 6.00"),
    ("Cc1noc(-c2ccc(-c3ccc(C4(C(=O)O)CC4)cc3)cc2)c1NC(=O)OC(C)c1ccccc1 (racemic) [Racemic Compound 1]", "< 6.00"),
]
